src = patent US8877778B2

Assign melting point to each entry below.
Include the unit right after the number.

Example entries and their recorded answers appear below.
compound-string	melting point
CC#CC(=O)N[C@H]1CC[C@H](CCN2CCC(c3cccc4c3CCO4)CC2)CC1	195 °C
O=C(CC1CCC1)N[C@H]1CC[C@H](CCN2CCC(c3cccc4c3CCO4)CC2)CC1	196 °C
CCCC(=O)N[C@H]1CC[C@H](CCN2CCC(c3cccc4c3CCO4)CC2)CC1	196 °C

melting point for CN(C)C(=O)CCC(=O)N[C@H]1CC[C@H](CCN2CCC(c3cccc4c3CCO4)CC2)CC1 is 205 °C

---

Molecular target: UniProt:P35462
Sequence (P35462 whole entry): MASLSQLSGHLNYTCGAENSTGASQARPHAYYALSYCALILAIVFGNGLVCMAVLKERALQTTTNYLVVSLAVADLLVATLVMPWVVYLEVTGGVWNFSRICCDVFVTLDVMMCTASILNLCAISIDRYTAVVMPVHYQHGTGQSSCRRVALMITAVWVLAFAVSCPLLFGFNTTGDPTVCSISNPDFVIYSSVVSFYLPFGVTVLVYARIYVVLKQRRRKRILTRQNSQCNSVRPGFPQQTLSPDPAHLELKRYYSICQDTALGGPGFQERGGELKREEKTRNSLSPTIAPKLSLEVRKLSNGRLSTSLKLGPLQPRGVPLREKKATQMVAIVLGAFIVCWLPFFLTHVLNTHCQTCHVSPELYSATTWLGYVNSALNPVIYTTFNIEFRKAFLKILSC
Answer each item with its documented Ki.
One number for each entry, in nM.

compound-string	unit-text	Ki
Cc1nc(-c2ccc(C(=O)N[C@H]3CC[C@H](CCN4CCC(c5cccc6c5CCO6)CC4)CC3)cc2)no1	nM	14.9
O=C(N[C@H]1CC[C@H](CCN2CCC(c3cccc4c3CCO4)CC2)CC1)c1ccnc2ccccc12	nM	6.1
O=C(CO)N[C@H]1CC[C@H](CCN2CCC(c3cccc4c3CCO4)CC2)CC1	nM	10

Let's switch to this compound now.
Per the record, O=C(N[C@H]1CC[C@H](CCN2CCC(c3cccc4c3CCO4)CC2)CC1)c1ccc(Cl)cc1Cl has Ki of 8.28

---

Kindly supply the reported melting point values for the records listed here.
One number for each entry, in °C.

Completed entries (count: 2):
compound-string	measured-result
N#CCC(=O)N[C@H]1CC[C@H](CCN2CCC(c3cccc4c3CCO4)CC2)CC1	194
Cc1ccc(C(=O)N[C@H]2CC[C@H](CCN3CCC(c4cccc5c4CCO5)CC3)CC2)cn1	202

Proceeding to the next compound to report its melting point.
// recorded melting point for O=C(CC1COC1)N[C@H]1CC[C@H](CCN2CCC(c3cccc4c3CCO4)CC2)CC1 : 197
